- measurement-protocol: Rat pharmacokinetics: IV infusion 1 mg/kg, then PO 5 mg/kg; blood and urine by LC-MS/MS
- Type: in vivo, Male Wistar Han rats
- details: male, Wistar Han, whole blood, oral bioavailability, ratio of dose-normalised AUC PO (5 mg/kg) and IV infusion (1 mg/kg)
measurement-kind: bioavailability

# per-item lookup of bioavailability; items listed below
1. Cc1cc(-c2cc(F)c(Br)c(F)c2)ccc1[C@@H](O)[C@H]1O[C@H](CO)[C@@H](O)[C@H](O)[C@@H]1O
2. Cc1cc(-c2cc(F)cc(F)c2)ccc1[C@@H](O)[C@H]1O[C@H](CO)[C@@H](O)[C@H](O)[C@@H]1O
3. Cc1cc(-c2cc(F)cc(C(F)(F)F)c2)ccc1[C@@H](O)[C@H]1O[C@H](CO)[C@@H](O)[C@H](O)[C@@H]1O

1. 10 to 30%
2. > 30%
3. 10 to 30%

###

- measurement-protocol: Rat pharmacokinetics: IV infusion 1 mg/kg, then PO 5 mg/kg; blood and urine by LC-MS/MS
- Format: in vivo, Male Wistar Han rats
- details: whole blood, area under blood concentration-time profile, PO 5 mg/kg, male Wistar Han rats, n = 3
Provide the reported AUC of each item.

Please review the entries below; each comes with its answer.
• OC[C@H]1O[C@H]([C@H](O)c2ccc(-c3cc(F)cc(F)c3)cc2C(F)(F)F)[C@@H](O)[C@@H](O)[C@@H]1O = < 0.5 µM·h
• Cc1cc(-c2cc(F)c(C)c(F)c2)ccc1[C@@H](O)[C@H]1O[C@H](CO)[C@@H](O)[C@H](O)[C@@H]1O = < 0.5 µM·h

Here is the next item to consider.
Give recorded AUC. Cc1cc(-c2cc(F)c(F)c(F)c2)ccc1[C@@H](O)[C@H]1O[C@H](CO)[C@@H](O)[C@H](O)[C@@H]1O
> 1 µM·h

###

- measurement-protocol: Rat pharmacokinetics: IV infusion 1 mg/kg, then PO 5 mg/kg; blood and urine by LC-MS/MS
- Assay type: in vivo, Male Wistar Han rats
- details: male, Wistar Han, whole blood, oral bioavailability, ratio of dose-normalised AUC PO (5 mg/kg) and IV infusion (1 mg/kg)
measurement-kind: bioavailability

Please review the entries below; each comes with its answer.
• OC[C@H]1O[C@H]([C@H](O)c2ccc(-c3cc(F)cc(F)c3)cc2C(F)(F)F)[C@@H](O)[C@@H](O)[C@@H]1O [Example 8] = > 30%
• Cc1cc(-c2cc(F)c(Cl)c(F)c2)ccc1[C@@H](O)[C@H]1O[C@H](CO)[C@@H](O)[C@H](O)[C@@H]1O [Example 2] = 10 to 30%

Here is the next item to consider.
Give recorded bioavailability. Cc1cc(-c2cc(F)c(F)c(F)c2)ccc1[C@@H](O)[C@H]1O[C@H](CO)[C@@H](O)[C@H](O)[C@@H]1O [Example 7]
> 30%

###

- measurement-protocol: Rat pharmacokinetics: IV infusion 1 mg/kg, then PO 5 mg/kg; blood and urine by LC-MS/MS
- Format: in vivo, Male Wistar Han rats
- details: whole blood, area under blood concentration-time profile, PO 5 mg/kg, male Wistar Han rats, n = 3
Provide the reported AUC of each item.

• Cc1cc(-c2ccc(C(F)(F)F)c(F)c2)ccc1[C@@H](O)[C@H]1O[C@H](CO)[C@@H](O)[C@H](O)[C@@H]1O = 0.5 to 1 µM·h
• Cc1cc(-c2cc(F)cc(C(F)(F)F)c2)ccc1[C@@H](O)[C@H]1O[C@H](CO)[C@@H](O)[C@H](O)[C@@H]1O = < 0.5 µM·h
• C=Cc1c(F)cc(-c2ccc([C@@H](O)[C@H]3O[C@H](CO)[C@@H](O)[C@H](O)[C@@H]3O)c(C)c2)cc1F = < 0.5 µM·h

# per-item lookup of AUC; items listed below
1. Cc1cc(-c2cc(F)c(Cl)c(F)c2)ccc1[C@@H](O)[C@H]1O[C@H](CO)[C@@H](O)[C@H](O)[C@@H]1O
2. Cc1cc(-c2cc(F)cc(F)c2)ccc1[C@@H](O)[C@H]1O[C@H](CO)[C@@H](O)[C@H](O)[C@@H]1O
3. Cc1cc(-c2cc(F)c(Br)c(F)c2)ccc1[C@@H](O)[C@H]1O[C@H](CO)[C@@H](O)[C@H](O)[C@@H]1O

1: > 1 µM·h; 2: 0.5 to 1 µM·h; 3: > 1 µM·h
